- System: AURKB
- condition_description: concentration: 1 μM, replicates: in singlicate; n = 1;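 further: KINOMEscan kinase panel screen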
# label = 1 if %Inh >= 30% else 0

Please tell me: is the compound `Cc1ccc(C(=O)N2CC[C@@H](O)C2)cc1-n1c(C)cc(OCc2ccc(F)cc2F)c(Br)c1=O` at or over 30% in terms of %Inh? 0

// query: O=C(NC1CCN(c2ccnc(Nc3ccc(F)cc3)n2)C1)c1cc2ccccc2s1 (centres unmarked) 0

Moving on to the next compound: `O=C(Nc1cccc(-c2nn3ncccc3c2-c2ccnc(Nc3ccccc3)n2)c1)c1c(F)cccc1F` 1

What would you report for COc1cccc(NC(=O)NC2CCN(c3ccnc(Nc4cc(OC)c(OC)c(OC)c4)n3)C2)c1 (centres unmarked) ? 1

Moving on to the next compound: `Nc1ncc(-c2cccnc2)c2scc(-c3ccc4c(c3)CCN4C(=O)Cc3ccccc3)c12` 1

Subsequent entry: `CCCCc1nn2ncccc2c1-c1ccnc(Nc2ccc(N3CCN(C)CC3)cc2)n1` 1

Moving on to `Cn1cc(-c2ccc3c(c2)CCN3C(=O)Cc2cccc(F)c2)c2c(N)ncnc21` 1

Entry to check: `COC(=O)Nc1nc2ccc(Oc3ccc(NC(=O)Nc4cc(C(F)(F)F)ccc4F)cc3)cc2n1C.Cl` 1

Now give it for `COc1ccc(-c2coc3ccc(-c4nnc(SCc5ccc(OC)c(C(F)(F)F)c5)o4)cc23)cc1` too. 0

Same thing, different compound: `Cn1cc(-c2[nH]c3cc(NC(=O)[C@H](N)C4CCCCC4)cc4c3c2C=NNC4=O)cn1` 1

Follow-up entry: `O=C(Nc1cccc(Oc2ccc3nc(NC(=O)C4CC4)cn3n2)c1)c1ccccc1C(F)(F)F` 1

Can you handle `COCCOCCOc1cc2ncc3c4ccc(C#N)cc4[nH]c3c2cc1OC` next? 1

Try this compound too: `COc1cc2c(cc1OCCN1CCNCC1)ncc1c3ccc(C#N)cc3[nH]c21` 1

Field entry: `COc1cc(Nc2nccc(-c3c(-c4cccc(NC(=O)c5c(F)cccc5F)c4)nn4ncccc34)n2)cc(OC)c1OC` 1

Try this compound next: `COc1cc(Nc2ncc3c(C)nc(-c4cc5ccccc5[nH]4)n3n2)cc(OC)c1OC` 0

Another compound to check: `CCn1c(-c2nonc2N)nc2c(C#CC(C)(C)O)nc(OC[C@H](N)c3ccccc3)cc21` 0

Then Cc1ccc(C)c(NC(=O)NC2CCN(c3ccnc(Nc4ccc(F)cc4)n3)C2)c1 (centres unmarked) ? 1

* * *

- Test system: FLT3
- condition_description: concentration: 1 μM, replicates: in singlicate; n = 1
# T = %Inh below 60% (exclusive); F = %Inh at/above 60%

hey, is %Inh for `Nc1n[nH]c2cnc(-c3ccccc3)cc12` lower than 60% or not? T

Now the same for `COc1ccc(Nc2nccc(NCCNC(=O)c3cc4ccccc4s3)n2)cc1` T

Try this compound too: `c1ccc(Oc2ccc(Nc3ccnc4cc(-c5ccc(CNCCN6CCOCC6)o5)ccc34)cc2)nc1` F

Can you handle `COc1cc(Nc2nccc(-c3c(-c4cccc(NC(=O)c5c(F)cccc5F)c4)nn4ncccc34)n2)cc(OC)c1OC` next? F

Same read-out for `COc1cc2c(cc1OCCN1CCNCC1)ncc1c3ccc(C#N)cc3[nH]c21` ? F

Now give it for `Oc1cc(Nc2ccnc3cc(I)ccc23)ccc1F` too. T

Next up: COc1cc(Nc2nccc(N3CCC(NC(=O)c4cc5ccccc5s4)C3)n2)cc(OC)c1OC (centres unmarked) T

Same for `CSc1cccc2c(-c3ccncn3)c(-c3ccc(F)cc3)nn12` T

// repeat for COc1cccc(NC(=O)NC2CCN(c3ccnc(Nc4cc(OC)c(OC)c(OC)c4)n3)C2)c1 (centres unmarked) and report F

And `CN1CCN(Cc2cccc(-c3ccc4c(Nc5ccc(Oc6ccccc6)cc5)ccnc4c3)c2)CC1` ? F

// next record `COCCOCCOc1cc2ncc3c4ccc(C#N)cc4[nH]c3c2cc1OC` F

* * *

- Tested on: CSNK1G3
- condition_description: concentration: 1 μM, replicates: in singlicate; n = 1
Kindly supply the reported %Inh values for the records listed here.
Your answer should be a plain number; it is taken to be in %.

Which %Inh is listed for `CN1CCN(CCCNc2nccc(-c3c(-c4ccc(F)cc4)nn4cc(C(F)(F)F)ccc34)n2)CC1` ? 16

Follow-up item: `O=C(Nc1n[nH]c2cc(-c3ccoc3)ccc12)C1CC1` 12

Let us now turn to `Cc1ccc(F)c(C(=O)Nc2cccc(-c3nn4ccccc4c3-c3ccnc(Nc4cccc(F)c4)n3)c2)c1F` 27

Input `CSc1cccc2c(-c3ccncn3)c(-c3ccc(F)cc3)nn12` 21

* * *

- Test system: MAP3K2
- condition_description: concentration: 1 μM, replicates: in singlicate; n = 1
measured_parameter: %Inh

Need %Inh, item `CC(C)(C)c1ccc2nccc(Nc3cccc(O)c3)c2c1` 0%

Repeat with `COc1cc(Nc2nccc(-c3c(-c4cccc(NC(=O)c5c(F)cccc5F)c4)nn4ccccc34)n2)cc(OC)c1OC` 56%

// repeat for `C[C@@H](Oc1cc(-n2cnc3cc(-c4ccnc(NCCS(C)(=O)=O)c4)ccc32)sc1C(N)=O)c1ccccc1Cl` and report 10%

Same again, this time with Cl.Cl.NCC(NC(=O)c1cc(-c2ccccc2)c(-c2ccnc3[nH]ccc23)s1)c1ccccc1 (stereo not shown) 27%

Now the compound `COC(=O)Nc1nc2ccc(Oc3ccc(NC(=O)Nc4cc(C(F)(F)F)ccc4F)cc3)cc2n1C.Cl` 0%

Input `O=C(Nc1cccc(-c2nn3ccccc3c2-c2ccnc(Nc3cccc(F)c3)n2)c1)c1c(F)ccc(F)c1Cl` 20%

Follow-up item: `COc1cccc(C2=C(Nc3ccc(Cl)c(C(=O)O)c3)C(=O)NC2=O)c1` 100%

Similarly, `Clc1ccc(-c2nn3ncccc3c2-c2ccnc(Nc3ccc4c(c3)OCCO4)n2)cc1` ? 7%

Can you handle `CN(C)S(=O)(=O)c1cc(-c2ccc3nccc(-c4cccc(S(N)(=O)=O)c4)c3c2)cnc1N` next? 0%

Then `CCS(=O)(=O)c1ccc(OC)c(Nc2nccc(-c3c(-c4cccc(NC(=O)c5c(F)cccc5F)c4)nn4ncccc34)n2)c1` ? 6%

Try this compound next: `CN1CCN(CCCNc2nccc(-c3c(-c4ccc(F)cc4)nn4cc(C(F)(F)F)ccc34)n2)CC1` 0%

Repeat with `CC(=O)Nc1nc2cnc(Nc3cc(NC(=O)c4cccc(C5(C#N)CC5)c4Cl)ccc3C)nc2s1` 0%

Same read-out for `c1ccc(-c2cnc3nccnn23)cc1` ? 0%

Again, but for `Cc1occc1-c1ncc(OC[C@@H](N)Cc2c[nH]c3ccccc23)cc1-c1ccc2[nH]nc(C)c2c1.O=C(O)C(F)(F)F` 96.9%

Param item: `Fc1ccc(-c2ncn(C3CCNCC3)c2-c2ccnc(Oc3ccc(-c4ccccc4)cc3)n2)cc1` 22%

# iterate: NCCCC(NC(=O)c1cc(Br)c(-c2ccnc3[nH]ccc23)s1)c1ccccc1.O=C(O)C(F)(F)F.O=C(O)C(F)(F)F (stereo not shown) 24%

* * *

- Test system: ERK2
- Construct: gene MAPK1
- condition_description: concentration: 1 μM, replicates: in singlicate; n = 1
Kindly state %Inh for each of the entries shown.
I only need the number, in %, no unit after it.

# input compound: `COc1cccc(C(=O)Nc2cccc(Oc3ccc4nc(NC(=O)C5CC5)cn4n3)c2)c1` ; wanted: its %Inh 6

Also Nc1ncc(-c2ccc3nccc(-c4ccncc4)c3c2)cc1S(=O)(=O)N1CCOCC1 [GSK1627798] ? 0

Also check Cc1cccc(Nc2nc(N[C@H]3CCNC3)ncc2C(N)=O)c1.Cl [GSK2197149] 0

// repeat for Cc1ccc(C(=O)Nc2ccc(Nc3ccnc4cc(-c5nccs5)ccc34)cc2O)cc1.Cl [GW494702] and report 0

* * *

- Test system: AKT1
- condition_description: concentration: 1 μM, replicates: in singlicate; n = 1
measured_parameter: %Inh (%)
Report as a plain number; the unit % is understood.

State the recorded %Inh for this entry: `Cl.c1ccc(-c2ccc3c(Nc4ccc5[nH]ncc5c4)ccnc3c2)nc1` 0

Now try `CCn1c(-c2nonc2N)nc2c(C#CC(C)(C)O)ncc(OCCCCN)c21.O=C(O)C(F)(F)F.O=C(O)C(F)(F)F` . 93.5

Similarly, `CN(C)Cc1ccc(-c2ccc3c(Nc4ccc(Oc5ccccn5)cc4)ccnc3c2)o1` ? 0

Field entry: `Cn1cc(-c2[nH]c3cc(NC(=O)[C@H](N)C4CCCCC4)cc4c3c2C=NNC4=O)cn1` 60

* * *

Please provide measured %Inh for the entries that follow.
- Tested on: GSK3A
- condition_description: concentration: 1 μM, replicates: in singlicate; n = 1
State just the number; it will be interpreted in %.

Report %Inh for `O=C(O)C(F)(F)F.O=C(O)C(F)(F)F.O=c1[nH]ccc2nc(N[C@@H]3CCCNC3)nc(Nc3ccc(S(=O)(=O)N4CCOCC4)cc3)c12` please. 99.3

Do the same for Cl.Cl.NCC(NCc1ccc(-c2ccnc3[nH]ccc23)s1)c1ccccc1 (stereo not drawn) please 0

Would you mind doing COc1cc(Nc2nccc(N3CCC(NC(=O)Nc4cccc(C(C)=O)c4)C3)n2)cc(OC)c1OC (stereo not drawn) as well? 0

Next up: `COc1ccc(-c2coc3ccc(-c4nnc(SCc5ccc(OC)c(C(F)(F)F)c5)o4)cc23)cc1` 25

`COC(=O)Nc1nc2cc(Oc3ccc(NC(=O)Nc4cc(C(F)(F)F)ccc4F)cn3)ccc2[nH]1.Cl.Cl` ? 0

Next: `COc1cccc(-c2ccc3c(NC(=O)C4CC4)n[nH]c3n2)c1` 88

How about this compound: `CCCCc1nn2ncccc2c1-c1ccnc(Nc2ccc(N3CCN(C)CC3)cc2)n1` 7

What do we get for `CN1CCN(CCCNc2nccc(-c3c(-c4ccc(F)cc4)nn4cc(C(F)(F)F)ccc34)n2)CC1` ? 25

Now try `c1ccc(-c2n[nH]cc2Nc2ccnc3ccccc23)nc1` . 0
